Target: DRB1*0901 (Homo sapiens, UniProt P01903+P01911, A100R/A103E/D57H/D86V/F55Y/F60I/F76Y/I96F/K127E/L162R/M171V/P40D/Q125H/Q99R/R33Q/R42F/S133A/S66N/T210M/V115G/W38K/Y107V/Y59G/Y89S)
Test: biochemical
Format: binding
parameter: IC50 (µM)
Report as a plain number; the unit µM is understood.

Give the reported IC50 for this compound. CSCC[C@H](NC(=O)[C@H](Cc1ccc(O)cc1)NC(=O)[C@H](Cc1ccc(O)cc1)NC(=O)[C@@H](NC(=O)[C@H](CO)NC(=O)[C@H](CC(=O)O)NC(=O)[C@H](Cc1c[nH]c2ccccc12)NC(=O)[C@H](C)NC(=O)[C@@H](N)C(C)C)C(C)C)C(=O)N[C@H](C(=O)N[C@@H](CC(=O)O)C(=O)N[C@@H](C)C(=O)NCC(=O)N[C@H](C(=O)N[C@@H](Cc1c[nH]c2ccccc12)C(=O)O)[C@@H](C)O)[C@@H](C)O [Peptide 1601.10] 0.587

Cited source for all entries: patent US9340577B2
